Cited source for all entries: ChEMBL document CHEMBL4346726

Tested on: Hepacivirus hominis
experiment_description: Binding affinity to HCV NS3/4a protease assessed as compound-protein adduct formation per mg protein using radiolabelled compound
Field: label. Allowed values: Met (PB < 100 pmol/mg) or Not met (PB >= 100 pmol/mg).

// below: answered compounds
# smiles_input, answer_label
records = [
    ("CC[C@@H]1C[C@]1(NC(=O)[C@@H]1C[C@@H](Oc2cc(-c3csc(NC(C)C)n3)nc3c(Cl)c(OCCN4CCOCC4)ccc23)CN1C(=O)[C@@H](NC(=O)O[C@@H]1C[C@@H]2C[C@@H]2C1)C(C)(C)C)C(=O)O", "Met"),
    ("C=C[C@@H]1C[C@]1(NC(=O)[C@@H]1C[C@@H](Oc2ncc(OC)c3ccc(Cl)cc23)CN1C(=O)[C@@H](NC(=O)OC(C)(C)C)C(C)(C)C)C(=O)NS(=O)(=O)C1CC1", "Not met"),
]

Problem: is_below(PB, 100 pmol/mg) for CC[C@@H]1[C@@H]2CN(C(=O)[C@H](C(C)(C)C)NC(=O)O[C@@H]3C[C@H]3CCCCCc3nc4ccc(OC)cc4nc3O2)[C@@H]1C(=O)N[C@]1(C(=O)NS(=O)(=O)C2(C)CC2)C[C@H]1C(F)F ?
Result: Met

Problem: Same thing, different compound: C=C[C@@H]1C[C@]1(NC(=O)[C@@H]1[C@H](CC)[C@@H]2CN1C(=O)[C@H](C(C)(C)C)NC(=O)O[C@@H]1C[C@H]1CCCCCc1nc3ccc(OC)cc3nc1O2)C(=O)NS(=O)(=O)C1CC1
Result: Not met

Problem: // same read-out, input: COc1ccc2c(O[C@H]3CCN4C(=O)N(C)CCCC/C=C\[C@@H]5C[C@@]5(C(=O)NS(=O)(=O)C5(C)CC5)NC(=O)[C@@H]4C3)cc(-c3nc(C(F)(F)F)cs3)nc2c1C
Result: Met

Problem: Further, for COc1ccc2c(O[C@@H]3C[C@H]4C(=O)N[C@]5(C(=O)NS(=O)(=O)C6CC6)C[C@H]5/C=C\CCCCN(C)C(=O)[C@@H]4C3)cc(-c3nc(C(C)C)cs3)nc2c1C ?
Result: Met

Problem: And the next one, Cc1cnc(C(=O)N[C@H]2CCCCC/C=C\[C@@H]3C[C@@]3(C(=O)NS(=O)(=O)C3CC3)NC(=O)[C@@H]3C[C@@H](Oc4nc5ccccc5c5ccccc45)CN3C2=O)cn1 ?
Result: Not met

---

experiment_description: Half life in rat at 1 mg/kg, iv or 3 mg/kg, po
Type: ADME, organism-based
protocol_conditions: in vivo
quantity_kind: half-life (min)
Give a bare numeral; the unit min is implied.

Problem: Endpoint output: half-life of CC[C@@H]1[C@@H]2CN(C(=O)[C@H](C(C)(C)C)NC(=O)O[C@@H]3C[C@H]3CCCCC(F)(F)c3nc4ccc(OC)cc4nc3O2)[C@@H]1C(=O)N[C@]1(C(=O)NS(=O)(=O)C2(C)CC2)C[C@H]1C(F)F . Value?
Result: 55.8

---

experiment_description: Fraction absorbed in dog at 1 mg/kg, po
Format: ADME, […], Canis lupus familiaris
protocol_conditions: in vivo, read-out: Fabs
quantity_kind: Fa (%)
Quick note: give the figure in %, leave out the unit.

Problem: Tell me the measured Fa of CC[C@@H]1[C@@H]2CN(C(=O)[C@H](C(C)(C)C)NC(=O)O[C@@H]3C[C@H]3CCCCC(F)(F)c3nc4ccc(OC)cc4nc3O2)[C@@H]1C(=O)N[C@]1(C(=O)NS(=O)(=O)C2(C)CC2)C[C@H]1C(F)F , please.
Result: 30
